target.or.system: Glutamate receptor ionotropic, kainate 2 (Rattus norvegicus, UniProt P42260)
Sequence (P42260 whole entry): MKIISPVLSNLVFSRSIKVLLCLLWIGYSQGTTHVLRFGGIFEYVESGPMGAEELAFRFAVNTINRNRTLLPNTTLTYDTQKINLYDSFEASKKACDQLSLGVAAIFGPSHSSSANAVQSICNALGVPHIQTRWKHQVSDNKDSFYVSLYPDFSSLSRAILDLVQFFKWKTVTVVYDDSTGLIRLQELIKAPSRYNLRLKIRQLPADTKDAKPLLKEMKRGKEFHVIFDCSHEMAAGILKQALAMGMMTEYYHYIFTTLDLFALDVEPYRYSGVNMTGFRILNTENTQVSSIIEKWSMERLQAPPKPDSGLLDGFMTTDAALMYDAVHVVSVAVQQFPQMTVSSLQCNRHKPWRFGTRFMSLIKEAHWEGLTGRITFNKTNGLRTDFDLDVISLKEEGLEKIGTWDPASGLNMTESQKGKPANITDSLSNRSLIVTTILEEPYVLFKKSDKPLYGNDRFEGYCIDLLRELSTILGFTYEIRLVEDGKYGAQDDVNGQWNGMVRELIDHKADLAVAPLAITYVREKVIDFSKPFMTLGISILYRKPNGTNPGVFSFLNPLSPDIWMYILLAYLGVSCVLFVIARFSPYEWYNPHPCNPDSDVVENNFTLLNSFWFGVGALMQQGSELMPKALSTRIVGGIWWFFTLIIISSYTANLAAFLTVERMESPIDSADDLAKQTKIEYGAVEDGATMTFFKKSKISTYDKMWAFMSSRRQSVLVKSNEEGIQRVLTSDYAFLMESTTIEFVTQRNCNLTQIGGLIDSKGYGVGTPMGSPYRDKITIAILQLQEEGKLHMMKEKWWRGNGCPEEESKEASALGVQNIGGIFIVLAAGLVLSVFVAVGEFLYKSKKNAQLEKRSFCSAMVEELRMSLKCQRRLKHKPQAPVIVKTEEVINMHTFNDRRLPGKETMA
Give measured pKi for each item. Keep answers brief.
Numbers only, as −log10 of the molar value.

[[record]]
smiles_code = "C=C(c1cccc(-c2ccccc2)c1)[C@H]1CN[C@H](C(=O)O)[C@H]1CC(=O)O"
target_or_system = "Glutamate receptor ionotropic, kainate 2 (Rattus norvegicus, UniProt P42260)"
measured_quantity = "pKi"
assay_value = 8.68

[[record]]
smiles_code = "C=C(c1ccc(OCCCCCc2ccccc2)cc1)[C@H]1CN[C@H](C(=O)O)[C@H]1CC(=O)O"
target_or_system = "Glutamate receptor ionotropic, kainate 2 (Rattus norvegicus, UniProt P42260)"
measured_quantity = "pKi"
assay_value = 6.90


For each entry beneath this line, provide reported pKi.
1. C=C(c1ccc(CCC)cc1)[C@H]1CN[C@H](C(=O)O)[C@H]1CC(=O)O
2. C=C(c1ccc(OCCc2ccccc2)cc1)[C@H]1CN[C@H](C(=O)O)[C@H]1CC(=O)O

OUTPUT:
[8.44, 8.21]

* * *

target.or.system: Glutamate receptor ionotropic, kainate 2 (Homo sapiens)
Sequence (Q13002 whole entry): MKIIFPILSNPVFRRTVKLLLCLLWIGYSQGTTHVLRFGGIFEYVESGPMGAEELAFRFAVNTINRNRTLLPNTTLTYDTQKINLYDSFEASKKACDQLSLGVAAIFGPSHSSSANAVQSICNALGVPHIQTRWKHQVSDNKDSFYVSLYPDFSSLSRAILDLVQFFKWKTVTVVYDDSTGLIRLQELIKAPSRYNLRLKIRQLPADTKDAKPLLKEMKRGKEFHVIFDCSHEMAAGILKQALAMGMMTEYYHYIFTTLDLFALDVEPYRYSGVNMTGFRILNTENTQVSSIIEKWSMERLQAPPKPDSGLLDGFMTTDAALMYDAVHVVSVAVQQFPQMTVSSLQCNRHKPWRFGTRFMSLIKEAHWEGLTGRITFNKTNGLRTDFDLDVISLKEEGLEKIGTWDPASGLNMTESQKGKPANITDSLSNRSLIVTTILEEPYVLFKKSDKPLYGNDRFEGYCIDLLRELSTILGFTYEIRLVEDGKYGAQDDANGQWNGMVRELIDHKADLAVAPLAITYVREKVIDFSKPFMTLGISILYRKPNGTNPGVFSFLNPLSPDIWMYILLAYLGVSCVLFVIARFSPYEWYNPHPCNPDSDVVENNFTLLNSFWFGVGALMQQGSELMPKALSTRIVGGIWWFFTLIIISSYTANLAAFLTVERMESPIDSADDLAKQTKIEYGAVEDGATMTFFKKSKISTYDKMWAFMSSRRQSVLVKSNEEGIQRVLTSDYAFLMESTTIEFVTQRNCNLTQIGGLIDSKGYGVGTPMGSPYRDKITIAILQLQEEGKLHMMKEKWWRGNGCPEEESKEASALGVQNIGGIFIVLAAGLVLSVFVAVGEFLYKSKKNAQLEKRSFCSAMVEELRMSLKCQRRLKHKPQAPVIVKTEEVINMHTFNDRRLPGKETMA
assay.method.text: Inhibition of [3H]kainate binding at ionotropic glutamate receptor kainate 2
Give measured pKi for each item. Keep answers brief.
Give bare numbers, as −log10 of the molar value.

[[record]]
smiles_code = "C=C(CC)c1ccc(C(=C)[C@H]2CN[C@H](C(=O)O)[C@H]2CC(=O)O)cc1"
measured_quantity = "pKi"
assay_value = 6.54

[[record]]
smiles_code = "C=C(c1ccc(F)c(C)c1)[C@H]1CN[C@H](C(=O)O)[C@H]1CC(=O)O"
measured_quantity = "pKi"
assay_value = 7.27


For each entry beneath this line, provide reported pKi.
1. C=C(C)c1ccc(C(=C)[C@@H]2CN[C@H](C(=O)O)[C@H]2CC(=O)O)cc1
2. C=C(c1cccc(OCCc2ccccc2)c1)[C@H]1CN[C@H](C(=O)O)[C@H]1CC(=O)O
3. C=C(c1ccc(OCCCCC)c(C)c1)[C@H]1CN[C@H](C(=O)O)[C@H]1CC(=O)O

OUTPUT:
1. 5.64
2. 6.18
3. 6.18

* * *

Give measured pKi for each item. Keep answers brief.
target.or.system: UniProtKB P42260
One number for each entry, as −log10 of the molar value.

[[record]]
smiles_code = "C=C(c1ccc(CCCC)cc1)[C@H]1CN[C@H](C(=O)O)[C@H]1CC(=O)O"
target_or_system = "UniProtKB P42260"
assay_value = 8.32


For each entry beneath this line, provide reported pKi.
1. C=C(CC)c1ccc(C(=C)[C@H]2CN[C@H](C(=O)O)[C@H]2CC(=O)O)cc1
2. C=C(c1cccc(OCCC(c2ccccc2)c2ccccc2)c1)[C@H]1CN[C@H](C(=O)O)[C@H]1CC(=O)O
3. C=C(c1ccc(C)c(C)c1)[C@H]1CN[C@H](C(=O)O)[C@H]1CC(=O)O

OUTPUT:
[8.05, 6.68, 8.64]

For each entry beneath this line, provide reported pKi.
1. C=C(c1cccc(C)c1)[C@H]1CN[C@H](C(=O)O)[C@H]1CC(=O)O
2. C=C(c1ccc(F)c(C)c1)[C@H]1CN[C@H](C(=O)O)[C@H]1CC(=O)O

OUTPUT:
1. 8.66
2. 8.72

For each entry beneath this line, provide reported pKi.
1. C=C(c1ccc(C)cc1)[C@H]1CN[C@H](C(=O)O)[C@H]1CC(=O)O
2. C=C(c1ccc(F)cc1)[C@H]1CN[C@H](C(=O)O)[C@H]1CC(=O)O

OUTPUT:
1: 8.59; 2: 8.57
